Target: T1, human VIP (human)
T1 construct: also called Vasoactive Intestinal Peptide
T1 peptide: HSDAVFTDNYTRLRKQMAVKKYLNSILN
Assay: SPR, Ab immobilised
Property: koff; scope: individual binders
Reply with the number, then its unit.

Some solved entries appear below for comparison.
binder	result
anti-PACAP antibody Ab2 (antibody, human IgG1, kappa, N297A, V domains shown, full-length rabbit/human chimeric antibody) VH: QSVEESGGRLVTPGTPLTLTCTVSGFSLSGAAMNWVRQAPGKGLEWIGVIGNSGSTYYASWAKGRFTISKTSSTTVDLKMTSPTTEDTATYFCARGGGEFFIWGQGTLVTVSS VL: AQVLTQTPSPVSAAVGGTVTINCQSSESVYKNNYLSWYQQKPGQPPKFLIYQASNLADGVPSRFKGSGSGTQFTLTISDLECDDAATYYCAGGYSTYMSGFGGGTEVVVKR	0.084 s⁻¹
anti-PACAP antibody Ab11 (antibody, human IgG1, kappa, N297A, V domains shown, full-length rabbit/human chimeric antibody) VH: QSVEESGGRLVTPGTPLTLTCTASGFSLSRYAMGWVRQAPGKGLEWIGDISTYGTTDYASWVNGRFTISRTSTTVTLKMTSLTTEDTATYFCARDYWLSLWGQGTLVTVSS VL: AAVLTQTPSPVSAAVGGTVTIKCQSSQSVYDNNALAWYQQKPGQPPKLLIYAASNLASGVPDRFSGSGSGTQFTLTISGVQCDDAATYYCLGGYDDAADNAFGGGTEVVVKR	0.047 s⁻¹
anti-PACAP antibody Ab22 (antibody, human IgG1, kappa, N297A, V domains shown, full-length rabbit/human chimeric antibody; PACAP38 specific) VH: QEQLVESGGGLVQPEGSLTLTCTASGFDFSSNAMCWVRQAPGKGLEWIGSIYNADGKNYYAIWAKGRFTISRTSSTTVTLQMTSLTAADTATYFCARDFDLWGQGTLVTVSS VL: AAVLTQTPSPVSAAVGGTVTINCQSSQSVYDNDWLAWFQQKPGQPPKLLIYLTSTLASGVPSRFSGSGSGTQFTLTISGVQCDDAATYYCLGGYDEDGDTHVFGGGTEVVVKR	0.18 s⁻¹

Looking up anti-PACAP antibody Ab14 (antibody, human IgG1, kappa, N297A, V domains shown, full-length rabbit/human chimeric antibody) VH: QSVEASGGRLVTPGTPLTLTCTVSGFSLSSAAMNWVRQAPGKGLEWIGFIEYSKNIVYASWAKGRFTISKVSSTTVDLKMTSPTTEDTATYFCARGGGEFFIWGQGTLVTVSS VL: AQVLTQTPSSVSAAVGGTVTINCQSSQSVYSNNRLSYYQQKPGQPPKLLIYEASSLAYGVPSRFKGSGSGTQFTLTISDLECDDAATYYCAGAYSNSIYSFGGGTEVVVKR , I found its koff recorded as 0.067 s⁻¹

Looking up anti-PACAP antibody Ab4 (antibody, human IgG1, kappa, N297A, V domains shown, full-length rabbit/human chimeric antibody) VH: QSVEESGGRLVTPGTPLTLTCTVSGFSLSSYDMSWVRQAPGKGLEYIGIINTNDDTWYASWVKGRFTISKTSSTTVDLKMTSLTTEDTATYFCARISDAYVFDYAYYFTLWGQGTLVTVSS VL: ALVMTQTPSSVSAAVGGTVTINCLASQNIYNSLAWYQQKPGQPPKLLIYRASTLASGVSSRFKGSGSGTQFTLTISGVECADAATYYCQQGAGADNIGNPFGGGTEVVVKR , I found its koff recorded as 0.021 s⁻¹

Looking up anti-PACAP antibody Ab16 (antibody, human IgG1, kappa, N297A, V domains shown, full-length rabbit/human chimeric antibody) VH: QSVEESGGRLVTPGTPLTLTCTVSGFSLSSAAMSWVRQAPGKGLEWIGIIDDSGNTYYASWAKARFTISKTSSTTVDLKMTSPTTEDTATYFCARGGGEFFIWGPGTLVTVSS VL: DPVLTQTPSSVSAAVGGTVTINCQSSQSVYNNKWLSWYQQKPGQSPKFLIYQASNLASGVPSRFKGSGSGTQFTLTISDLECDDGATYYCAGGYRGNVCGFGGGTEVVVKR , I found its koff recorded as 0.096 s⁻¹
